Molecular target: Nuclear receptor ROR-gamma (Mus musculus)
Experiment: qHTS for inhibitors of ROR gamma transcriptional activity; note: nearly all actives have a fitted effect of over 60% in size
Settings: Drosophila S2 Gal4-RORgamma UAS-luciferase reporter, 20 h; series mostly up to 53.6 µM
The campaign covered roughly 310,000 compounds. About 17,000 (5.5%) were called active. Inconclusive results (about 11%) are left out. Calls come from the whole dose curve; as a rule, active = well fitted inhibition curve with a large enough effect; inconclusive = small, poorly fitted or top-dose-only effect, or effect the other way; inactive = no such curve, though single readings can be large or run the other way. Only a selection was taken, and actives are over-represented in it overall.
Outcome codes: 1 = active, 0 = inactive

| compound | study target | classification |
| --- | --- | --- |
| Cc1nc([N+](=O)[O-])cn1CC(=O)Nc1ccc(Cl)cc1 | Nuclear receptor ROR-gamma (Mus musculus) | 0 |
| O=[N+]([O-])c1cc([N+](=O)[O-])c(Oc2cc(F)cc(F)c2F)cc1NN1CCCCC1 | Nuclear receptor ROR-gamma (Mus musculus) | 0 |
| O=C(CNC(=O)C1COc2ccccc2O1)N/N=C/c1cc(Br)c(O)c(Br)c1 (stereo unspecified) | Nuclear receptor ROR-gamma (Mus musculus) | 0 |
| Cc1ccc(C(=O)N/N=C\c2cc(Br)c(Br)o2)cn1 | Nuclear receptor ROR-gamma (Mus musculus) | 1 |
| COc1ccc(-n2c(SCC(=O)OC(C)C)nnc2-c2ccccn2)cc1 | Nuclear receptor ROR-gamma (Mus musculus) | 0 |
| O=C(C1CC(=O)N(C2CCCCC2)C1)N1CCN(c2ccccc2)CC1 (stereo unspecified) | Nuclear receptor ROR-gamma (Mus musculus) | 0 |
| Cc1[nH]c(C)c(S(=O)(=O)N2CCN(c3cccc(C(F)(F)F)c3)CC2)c1C(=O)N1CCCC1 | Nuclear receptor ROR-gamma (Mus musculus) | 0 |
| COc1ccc(Nc2ncnc3sc(C)cc23)cc1 | Nuclear receptor ROR-gamma (Mus musculus) | 0 |
| COc1ccc(/C=C/C(=O)NC(=S)NN2CCCCC2c2cccnc2)cc1 (stereo unspecified) | Nuclear receptor ROR-gamma (Mus musculus) | 1 |
| CCOC(=O)C1CCN(S(=O)(=O)c2ccc3c(c2)N(C(C)=O)CCO3)CC1 | Nuclear receptor ROR-gamma (Mus musculus) | 0 |
| CCOc1ccc(-c2n[nH]c(C)c2-c2ccccn2)c(O)c1 | Nuclear receptor ROR-gamma (Mus musculus) | 1 |
| CN1CCN(Cc2nc3cc(NC(=O)COc4ccc([N+](=O)[O-])cc4)ccc3n2C)CC1 | Nuclear receptor ROR-gamma (Mus musculus) | 0 |
| O=C(COC(=O)Cc1ccc(F)cc1)Nc1cc(S(=O)(=O)N2CCOCC2)ccc1N1CCCC1 | Nuclear receptor ROR-gamma (Mus musculus) | 0 |
| COc1ccc(C(=O)N/N=c2\oc3ccccc3cc2C(N)=O)cc1 | Nuclear receptor ROR-gamma (Mus musculus) | 0 |
| O=C(N/N=C/c1ccc(Br)o1)c1cncc(Br)c1 | Nuclear receptor ROR-gamma (Mus musculus) | 1 |
| Cc1cc(C)nc(NS(=O)(=O)c2ccc(N3C(=O)C4CCCCC4C3=O)cc2)n1 (stereo unspecified) | Nuclear receptor ROR-gamma (Mus musculus) | 0 |
| NC(=O)c1cc2ccccc2o/c1=N/NC(=O)c1cccc(F)c1 | Nuclear receptor ROR-gamma (Mus musculus) | 0 |
| Cc1ccc(-c2cc(C(F)(F)F)n3ncc(C(=O)N4CCCCC4c4cccnc4)c3n2)cc1 (stereo unspecified) | Nuclear receptor ROR-gamma (Mus musculus) | 0 |
| COCCNC(=S)Nc1cc(S(=O)(=O)N2CCOCC2)ccc1N1CCCCC1 | Nuclear receptor ROR-gamma (Mus musculus) | 1 |
| Cc1ccccc1NC(=O)Cn1cc(C(=O)C2CC2)c2ccccc21 | Nuclear receptor ROR-gamma (Mus musculus) | 0 |
| CC(=O)NCCC(=O)Nc1cc(S(=O)(=O)N2CCOCC2)ccc1N1CCOCC1 | Nuclear receptor ROR-gamma (Mus musculus) | 0 |
